measured target: α1-receptors ([3H]prazosin)
assay protocol: [3H]Prazosin binding (α1-receptors), rat cerebral cortices
condition: rat cerebral cortex, 0.35 nM [3H]prazosin, 25° C., 30 min; read-out: [3H] prazosine IC50
Protocol: Rat cerebral cortices were homogenized in 50 volumes of original wet weight of ice-cold 50 mM Tris-HCl buffer pH 7.4. […] The radioactivity retained on the filters was determined by liquid scintillation counting. Data analysis The inhibition of specific binding of the radioligands by the tested drugs was analyzed to estimate the IC50 value by using the non-linear curve-fitting program Allfit [A. De Lean et al., Am. […]
Structures can show the parent of a compound that is named as a salt.
Rule: measured IC50 below 0.09 µM gets Condition met; anything equal to or greater than 0.09 µM gets Condition not met.

Exercise: Strictly below 0.09 µM in IC50? COc1cc2nc(N3CCN(C(=O)C(C)Oc4c(OC)cccc4C(C)C)CC3)nc(N)c2cc1OC.Cl (centres unmarked) [Example 26, hydrochloride]
Key: Condition not met

Exercise: Here is the next compound: COc1cc2nc(N3CCN(C(=O)CCCNS(C)(=O)=O)CC3)nc(N)c2cc1OC [Example 9, hydrochloride]
Key: Condition met

Exercise: Here is the next compound: COc1cc2nc(N(C)CCC(c3ccccc3)c3ccccc3)nc(N)c2cc1OC [Example 29, hydrochloride]
Key: Condition met

Exercise: Here is the next compound: COc1cc2nc(N3CCN(C(=O)CC(=O)c4ccccc4)CC3)nc(N)c2cc1OC
Key: Condition met

Exercise: Here is the next compound: COc1cc2nc(N3CCN(C(=O)CCN)CC3)nc(N)c2cc1OC
Key: Condition met

Exercise: Here is the next compound: COc1cc2nc(N3CCN(C(=O)CC(O)c4ccccc4)CC3)nc(N)c2cc1OC (centres unmarked)
Key: Condition met

Exercise: Here is the next compound: COc1cc2nc(N3CCN(Cc4ccccc4)CC3)nc(N)c2cc1OC [Example 1, hemihydrate]
Key: Condition met

Exercise: Here is the next compound: COc1cc2nc(N3CCN(C(=O)CCNC(=O)OCc4ccccc4)CC3)nc(N)c2cc1OC
Key: Condition not met

From: patent US5798362A
